meta.source: patent US20030087881A1

- SUBJECT_OF_TEST: Human EGF receptor tyrosine kinase (Homo sapiens, UniProt P00533)
- Sequence (P00533 25-1210): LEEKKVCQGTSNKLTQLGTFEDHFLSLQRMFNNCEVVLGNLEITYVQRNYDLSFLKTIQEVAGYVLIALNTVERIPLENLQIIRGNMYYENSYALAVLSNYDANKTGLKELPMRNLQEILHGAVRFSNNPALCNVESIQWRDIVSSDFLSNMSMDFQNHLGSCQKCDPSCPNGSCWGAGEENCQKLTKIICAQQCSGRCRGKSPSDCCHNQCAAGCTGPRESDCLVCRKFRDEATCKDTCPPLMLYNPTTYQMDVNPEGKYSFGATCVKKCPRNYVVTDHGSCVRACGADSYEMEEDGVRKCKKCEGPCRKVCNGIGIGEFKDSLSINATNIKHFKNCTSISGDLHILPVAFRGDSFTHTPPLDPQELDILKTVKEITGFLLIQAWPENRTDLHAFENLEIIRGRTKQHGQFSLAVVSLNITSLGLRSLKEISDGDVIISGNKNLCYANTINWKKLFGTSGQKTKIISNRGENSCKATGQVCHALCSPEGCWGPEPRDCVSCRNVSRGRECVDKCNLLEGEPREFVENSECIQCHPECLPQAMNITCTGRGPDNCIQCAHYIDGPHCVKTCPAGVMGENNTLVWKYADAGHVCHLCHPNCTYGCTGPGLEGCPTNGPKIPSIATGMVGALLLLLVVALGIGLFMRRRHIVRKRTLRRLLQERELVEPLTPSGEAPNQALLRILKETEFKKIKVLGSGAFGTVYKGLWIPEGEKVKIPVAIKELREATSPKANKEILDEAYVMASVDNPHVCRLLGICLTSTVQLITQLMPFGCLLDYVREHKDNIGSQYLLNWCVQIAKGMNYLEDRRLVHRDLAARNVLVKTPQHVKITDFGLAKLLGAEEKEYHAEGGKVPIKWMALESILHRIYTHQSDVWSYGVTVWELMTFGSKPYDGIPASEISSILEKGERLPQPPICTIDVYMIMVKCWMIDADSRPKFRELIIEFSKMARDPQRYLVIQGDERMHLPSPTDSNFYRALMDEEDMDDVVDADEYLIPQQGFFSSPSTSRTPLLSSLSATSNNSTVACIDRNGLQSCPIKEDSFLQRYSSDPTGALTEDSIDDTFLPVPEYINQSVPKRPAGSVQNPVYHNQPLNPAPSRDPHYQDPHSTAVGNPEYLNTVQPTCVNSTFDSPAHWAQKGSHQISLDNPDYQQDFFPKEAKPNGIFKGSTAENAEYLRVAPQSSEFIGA
- TEST_CONTEXT: read-out: IC50 (nM) EGFr (isolated enzyme assay); isolated enzyme from A431 cells; 10 μM ATP
VALUE_KIND: IC50 (nM)
One number for each entry, in nM.

*Q* For the molecule shown here, C=CC(=O)Nc1ccc2ncnc(N3CCc4ccc(Br)cc43)c2c1 [Example 1] , give the reported IC50.
*A* 0.4
